Biological target: human 5-HT2A receptor (Homo sapiens)
Experiment: Human 5-HT2A radioligand binding assay ([3H]-ketanserin)
Parameters: expressed in transfected cells; host or cells: HTR2A&Gα15-HEK293 (tetracycline induction)
Each entry below carries its reported log10 IC50.
ENDPOINT: log10 IC50 (log10 of the value in µM)

CSc1ccc2[nH]cc(CCN(C)C(C)C)c2c1	-0.03
[2H]C([2H])([2H])N(CCc1c[nH]c2ccc(SC)cc12)C([2H])([2H])[2H]	-0.41
CCN(C)CCc1c[nH]c2ccc(SC)cc12	-0.60
COc1ccc2[nH]cc(CCN3CC[C@@H](OC(F)F)C3)c2c1 [(R) I-67]	0.61
COc1ccc2[nH]cc(CCN3CC[C@H](OC(F)F)C3)c2c1 [(S) I-67]	0.69
CSc1ccc2[nH]cc(CCN(C(C)C)C(C)C)c2c1	0.30
CN(C)CCc1c[nH]c2ccc(OCCOC(F)F)cc12	0.89
COc1ccc2[nH]cc(CCN3CC[C@@H](OC)C3)c2c1 [(R) I-66]	0.63
CCN(CC)CCc1c[nH]c2ccc(SC)cc12	-0.11

###

Target: human 5-HT2A receptor (Homo sapiens, UniProt P28223)
Sequence (P28223 whole entry): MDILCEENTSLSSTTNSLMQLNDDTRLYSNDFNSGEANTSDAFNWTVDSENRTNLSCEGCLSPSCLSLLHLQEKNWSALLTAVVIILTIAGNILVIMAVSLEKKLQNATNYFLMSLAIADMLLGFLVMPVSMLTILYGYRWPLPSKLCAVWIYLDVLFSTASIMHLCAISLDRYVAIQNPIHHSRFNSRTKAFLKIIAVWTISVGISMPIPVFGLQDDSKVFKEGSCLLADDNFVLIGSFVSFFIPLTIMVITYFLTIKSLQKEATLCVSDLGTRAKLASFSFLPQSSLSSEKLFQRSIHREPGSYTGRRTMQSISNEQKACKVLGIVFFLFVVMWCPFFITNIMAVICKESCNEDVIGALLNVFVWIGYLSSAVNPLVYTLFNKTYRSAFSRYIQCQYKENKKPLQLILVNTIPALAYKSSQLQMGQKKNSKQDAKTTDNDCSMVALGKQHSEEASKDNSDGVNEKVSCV
Experiment: Human 5-HT2A radioligand binding assay ([3H]-ketanserin)
Design: expressed in transfected cells; host or cells: HTR2A&Gα15-HEK293 (tetracycline induction)
Settings: [3H]-ketanserin displacement (Table 14); read-out: h5-HT2A, IC50
pIC50: −log10 of the molar value.
ENDPOINT: pIC50

CN(C)CCc1c[nH]c2ccccc12	6.02

###

Assay: Pharmacokinetic studies in rat (i.v.)
Type: in vivo
Settings: male, Sprague-Dawley, rat, plasma, intravenous, rat i.v., 4 h, mean of 3 rats; dose 1.37 mg/kg (I-71, I-128), 1.33 mg/kg ((S) I-67); read-out: Plasma concentration, Mean ± SD
ENDPOINT: concentration at 4 h (ng/mL)

COc1ccc2[nH]cc(CCN3CC[C@H](OC(F)F)C3)c2c1 [(S) I-67]	6.96
COc1ccc2[nH]cc(CCN(C)CCOC(F)F)c2c1	1.82

###

Each entry below carries its reported microsomal CLint at 2 μM.
Experiment: Human liver microsomes stability
Type: in vitro ADME
Conditions: Human liver microsomes, 2 μM compound, 0.5 mg/mL microsomes, 1 mM NADPH; read-out: CLint (μL/min/mg protein)
ENDPOINT: microsomal CLint at 2 μM (µL/min/mg)

CSc1ccc2[nH]cc(CCN(C(C)C)C(C)C)c2c1 [Compound I-17]	198
CCN(C)CCc1c[nH]c2ccc(SC)cc12 [Compound I-13]	118
[2H]C([2H])([2H])N(CCc1c[nH]c2ccc(SC)cc12)C([2H])([2H])[2H] [Compound I-1]	230
CSc1ccc2[nH]cc(CCN(C)C(C)C)c2c1 [Compound I-19]	74.1
CCN(CC)CCc1c[nH]c2ccc(SC)cc12 [Compound I-12]	53.8

###

Assay: Pharmacokinetic studies in rat (i.v.)
Assay type: in vivo
Conditions: male, Sprague-Dawley, rat, plasma, iv, rat plasma, i.v., second individual rat (R02/R05); dose 1.37 mg/kg (I-71, I-128), 1.33 mg/kg ((S) I-67); read-out: AUC0-tlast
ENDPOINT: AUC(0-t)

CN(C)CCc1c[nH]c2ccc(OCCOC(F)F)cc12	85.7 ng·h/mL
COc1ccc2[nH]cc(CCN(C)CCOC(F)F)c2c1	275 ng·h/mL
COc1ccc2[nH]cc(CCN3CC[C@H](OC(F)F)C3)c2c1 [(S) I-67]	508 ng·h/mL

###

Target: human 5-HT2A receptor (Homo sapiens, UniProt P28223)
Test: Human 5-HT2A functional FLIPR assay (agonist mode)
Format: cell-based
Set-up: expressed in transfected cells; host or cells: HTR2A&Gα15-HEK293 (tetracycline induction)
Conditions: FLIPR calcium, agonist mode, HTR2A&Gα15-HEK293 cells (Table 9); read-out: h5-HT2A, EC50
ENDPOINT: EC50 (nM)

CN(C)CCc1c[nH]c2ccccc12	163

###

Each entry below carries its reported Remaining Percentage (%).
Assay: Human liver microsomes stability
Type: in vitro ADME
Conditions: human liver microsomes, Without Cofactors, 0 min
Protocol: The objective of this study was to estimate in vitro metabolic stability of exemplary compounds of Formula (I) or a pharmaceutically acceptable salt, solvate, and/or prodrug thereof in pooled human, male rat, and male mouse liver microsomes. The concentrations of compounds in reaction systems were evaluated by LC-MS/MS for estimating the stability in pooled human, male rat, and male mouse liver microsomes. The in vitro intrinsic clearances of test compounds were determined as well. […]
ENDPOINT: Remaining Percentage (%)

COc1ccc2[nH]cc(CCN3CC[C@H](OC(F)F)C3)c2c1 [(S) I-67]	100.00
COc1ccc2[nH]cc(CCN3CC[C@@H](OC)C3)c2c1 [(R) I-66]	100.00
CN(C)CCc1c[nH]c2ccc(OCCOC(F)F)cc12	100.00
COc1ccc2[nH]cc(CCN3CC[C@@H](OC(F)F)C3)c2c1 [(R) I-67]	100.00
O=C(O)Cc1ccccc1Nc1c(Cl)cccc1Cl	100.00

###

Experiment: Rat liver microsomes stability
Format: in vitro ADME
Conditions: male; Rat liver microsomes, 2 μM compound, 0.5 mg/mL microsomes, 1 mM NADPH, 37° C
Method: The objective of this study was to estimate in vitro metabolic stability of exemplary compounds of Formula (I) or a pharmaceutically acceptable salt, solvate, and/or prodrug thereof in pooled human, male rat, and male mouse liver microsomes. The concentrations of compounds in reaction systems were evaluated by LC-MS/MS for estimating the stability in pooled human, male rat, and male mouse liver microsomes. The in vitro intrinsic clearances of test compounds were determined as well. […]
Each entry below carries its reported half-life at 2 μM.
ENDPOINT: half-life at 2 μM (min)

CSc1ccc2[nH]cc(CCN(C)C(C)C)c2c1 [Compound I-19]	103
CCN(CC)CCc1c[nH]c2ccc(SC)cc12 [Compound I-12]	37.4
CCN(C)CCc1c[nH]c2ccc(SC)cc12 [Compound I-13]	13.7
CSc1ccc2[nH]cc(CCN(C(C)C)C(C)C)c2c1 [Compound I-17]	37.8

###

Test: Pharmacokinetic studies in rat (i.v.)
Assay type: in vivo
Conditions: male, Sprague-Dawley, rat, plasma, iv, 1.2 mg/kg, I-12 1.2 mg/kg i.v., rat plasma, individual rats R01-R03; read-out: AUC0-tlast
ENDPOINT: AUC(0-t) (ng·h/mL)

CCN(CC)CCc1c[nH]c2ccc(SC)cc12	80.6

###

Experiment: Human liver microsomes stability
Type: in vitro ADME
Details: human liver microsomes; read-out: Scaled-up CLint
ENDPOINT: CLint scaled at 2 μM (L/h/kg)

COc1ccc2[nH]cc(CCN3CC[C@@H](OC)C3)c2c1 [(R) I-66]	0.332
CN(CCOC(F)F)CCc1c[nH]c2ccccc12	10.9
COc1ccc2[nH]cc(CCN(C)CCOC(F)F)c2c1	7.62
COc1ccc2[nH]cc(CCN3CC[C@H](OC(F)F)C3)c2c1 [(S) I-67]	2.23
COc1ccc2[nH]cc(CCN3CC[C@@H](OC(F)F)C3)c2c1 [(R) I-67]	3.56
CN(C)CCc1c[nH]c2ccc(OCCOC(F)F)cc12	4.57

###

Experiment: Rat liver microsomes stability
Assay type: in vitro ADME
Settings: male, rat, liver microsomes, Rat liver microsomes, 2 μM compound, 0.5 mg/mL microsomes, 1 mM NADPH, 37° C
ENDPOINT: half-life at 2 μM

O=C(O)Cc1ccccc1Nc1c(Cl)cccc1Cl	15.3 min

###

Test: Pharmacokinetic studies in rat (i.v.)
Format: in vivo
Details: male, Sprague-Dawley, rat, plasma, intravenous, rat i.v., 4 h, first individual rat (R01/R04); dose 1.37 mg/kg (I-71, I-128), 1.33 mg/kg ((S) I-67); read-out: Plasma concentration
ENDPOINT: concentration at 4 h (ng/mL)

COc1ccc2[nH]cc(CCN3CC[C@H](OC(F)F)C3)c2c1 [(S) I-67]	5.35
COc1ccc2[nH]cc(CCN(C)CCOC(F)F)c2c1	1.27

###

Assay: Pharmacokinetic studies in rat (i.v.)
Format: in vivo
Details: male, Sprague-Dawley, rat, plasma, iv, 1.2 mg/kg, I-12 1.2 mg/kg i.v., rat plasma, Mean ± SD; read-out: AUC0-tlast
ENDPOINT: AUC(0-t)

CCN(CC)CCc1c[nH]c2ccc(SC)cc12	84.7 ng·h/mL

###

Assay: Pharmacokinetic studies in rat (i.v.)
Type: in vivo
Conditions: male, Sprague-Dawley, rat, plasma, intravenous, rat i.v., 1 h, second individual rat (R02/R05); dose 1.37 mg/kg (I-71, I-128), 1.33 mg/kg ((S) I-67); read-out: Plasma concentration
ENDPOINT: concentration at 1 h (ng/mL)

COc1ccc2[nH]cc(CCN(C)CCOC(F)F)c2c1	87.2
COc1ccc2[nH]cc(CCN3CC[C@H](OC(F)F)C3)c2c1 [(S) I-67]	155
CN(C)CCc1c[nH]c2ccc(OCCOC(F)F)cc12	13.1
